FYI, the data here is from ChEMBL document CHEMBL2034880.

test: Half life in dog liver microsomes at 5 uM; details: liver microsomes

Smiles Text	Relation Sign	half-life at 5 µM (min)
C=CC(=O)NCc1coc(-c2c(N)ncnc2Nc2ccc(F)c(Cl)c2)n1	=	9
C=CC(=O)NCc1coc(-c2c(N)ncnc2Nc2ccc(Oc3cccc(F)c3)c(Cl)c2)n1	>	100
C=CC(=O)NCc1coc(-c2c(N)ncnc2Nc2ccc(Oc3cccnc3)c(Cl)c2)n1	=	39
C=CC(=O)NCc1coc(-c2c(N)ncnc2Nc2ccc(Oc3ccccc3)c(Cl)c2)n1	>	100
C=CC(=O)NCc1coc(-c2c(N)ncnc2Nc2ccc(Oc3cc(Cl)ccc3Cl)c(Cl)c2)n1	>	100
C=CC(=O)NCc1coc(-c2c(N)ncnc2Nc2ccc(Oc3ccccn3)c(Cl)c2)n1	=	24
C=CC(=O)NCc1coc(-c2c(N)ncnc2Nc2ccc(OCc3ccccn3)c(F)c2)n1	=	44
C=CC(=O)NCc1coc(-c2c(N)ncnc2Nc2ccc(OCc3cccc(F)c3)c(Cl)c2)n1	>	100
C=CC(=O)NCc1coc(-c2c(N)ncnc2Nc2ccc(OCc3ccccn3)c(Cl)c2)n1	=	46
C=CC(=O)NCc1coc(-c2c(N)ncnc2Nc2ccc(Oc3ccc(F)cc3)c(Cl)c2)n1	>	100
C=CC(=O)NCc1coc(-c2c(N)ncnc2Nc2ccc(Cl)c(Cl)c2F)n1	>	100

====

assay: Half life in mouse liver microsomes at 5 uM; conditions: liver microsomes
// half-life at 5 µM lookup, one value per entry
Observed Property: half-life at 5 µM (min)

Smiles Text	Observed Property	Relation Sign	Observed Measurement
C=CC(=O)NCc1coc(-c2c(N)ncnc2Nc2ccc(Oc3ccccn3)c(Cl)c2)n1	half-life at 5 µM	=	15
C=CC(=O)NCc1coc(-c2c(N)ncnc2Nc2ccc(Oc3ccccc3)c(Cl)c2)n1	half-life at 5 µM	=	48
C=CC(=O)NCc1coc(-c2c(N)ncnc2Nc2ccc(Oc3ccc(F)cc3)c(Cl)c2)n1	half-life at 5 µM	>	100
C=CC(=O)NCc1coc(-c2c(N)ncnc2Nc2ccc(Oc3cccnc3)c(Cl)c2)n1	half-life at 5 µM	=	18
C=CC(=O)NCc1coc(-c2c(N)ncnc2Nc2ccc(Oc3cccc(F)c3)c(Cl)c2)n1	half-life at 5 µM	>	100
C=CC(=O)NCc1coc(-c2c(N)ncnc2Nc2ccc(Cl)c(Cl)c2F)n1	half-life at 5 µM	=	74
C=CC(=O)NCc1coc(-c2c(N)ncnc2Nc2ccc(F)c(Cl)c2)n1	half-life at 5 µM	=	9
C=CC(=O)NCc1coc(-c2c(N)ncnc2Nc2ccc(OCc3ccccn3)c(F)c2)n1	half-life at 5 µM	=	9
C=CC(=O)NCc1coc(-c2c(N)ncnc2Nc2ccc(OCc3ccccn3)c(Cl)c2)n1	half-life at 5 µM	=	17
C=CC(=O)NCc1coc(-c2c(N)ncnc2Nc2ccc(Oc3cc(Cl)ccc3Cl)c(Cl)c2)n1	half-life at 5 µM	=	57

====

test: AUC (0 to last) in ICR mouse at 10 mg/kg, po; assay type: ADME, organism-based; parameters: time 0 - last, dose 10 mg/kg, route oral; conditions: plasma
Observed Property: AUC(0-t) (ng·h/mL)

Smiles Text	Observed Property	Quantity Unit	Observed Measurement
C=CC(=O)NCc1coc(-c2c(N)ncnc2Nc2ccc(OCc3ccccn3)c(Cl)c2)n1.Cl	AUC(0-t)	ng·h/mL	455

====

biological target: Platelet-derived growth factor receptor alpha (Homo sapiens)
Sequence (P16234 whole entry): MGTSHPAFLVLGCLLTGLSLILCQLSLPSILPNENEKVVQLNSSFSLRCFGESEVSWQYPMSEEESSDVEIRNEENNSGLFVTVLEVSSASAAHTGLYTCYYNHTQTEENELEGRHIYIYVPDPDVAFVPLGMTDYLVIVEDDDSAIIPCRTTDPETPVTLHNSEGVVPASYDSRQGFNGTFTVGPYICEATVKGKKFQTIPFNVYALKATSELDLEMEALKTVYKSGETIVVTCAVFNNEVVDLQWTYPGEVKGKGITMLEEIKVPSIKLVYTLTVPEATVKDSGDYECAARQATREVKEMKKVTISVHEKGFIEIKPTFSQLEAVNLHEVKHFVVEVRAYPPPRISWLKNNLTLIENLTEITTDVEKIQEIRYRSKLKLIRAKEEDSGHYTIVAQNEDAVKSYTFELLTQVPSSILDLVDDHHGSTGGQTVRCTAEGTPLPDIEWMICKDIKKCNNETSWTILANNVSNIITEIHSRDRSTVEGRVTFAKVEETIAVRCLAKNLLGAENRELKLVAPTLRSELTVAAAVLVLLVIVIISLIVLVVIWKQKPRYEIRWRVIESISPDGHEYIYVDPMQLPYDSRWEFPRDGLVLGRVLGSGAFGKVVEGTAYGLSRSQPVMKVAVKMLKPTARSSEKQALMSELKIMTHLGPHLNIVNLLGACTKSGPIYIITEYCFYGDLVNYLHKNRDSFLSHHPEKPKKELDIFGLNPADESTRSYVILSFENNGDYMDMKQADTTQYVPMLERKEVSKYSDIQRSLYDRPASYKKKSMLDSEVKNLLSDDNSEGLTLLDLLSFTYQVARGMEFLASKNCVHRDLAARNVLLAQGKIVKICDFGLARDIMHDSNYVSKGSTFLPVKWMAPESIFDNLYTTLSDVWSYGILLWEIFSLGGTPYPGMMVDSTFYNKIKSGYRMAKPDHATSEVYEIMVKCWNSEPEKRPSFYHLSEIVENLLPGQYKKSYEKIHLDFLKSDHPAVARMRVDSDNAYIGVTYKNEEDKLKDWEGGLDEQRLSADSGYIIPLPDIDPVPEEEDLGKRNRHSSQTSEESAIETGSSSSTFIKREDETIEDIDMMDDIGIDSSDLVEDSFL
pIC50: −log10 of the molar value.
Observed Property: pIC50

Smiles Text	Observed Property	Observed Measurement
C=CC(=O)NCc1coc(-c2c(N)ncnc2Nc2ccc(OCc3ccccn3)c(Cl)c2)n1	pIC50	< 5.52
